System: SF-268
Experiment: Growth inhibition of human SF268 cells incubated for 48 hrs by sulforhodamine B assay
Assay type: functional, cell-based
Settings: SF-268, 48 h, read-out: pGI50 (converted)
Parameter Measured: GI50 (µM)
Kindly answer with a numeric value in µM, unit omitted.

Reference set, count: 3
COc1cc(Cl)cc(-c2nn(-c3cccc(NC(=O)Nc4cc(C(F)(F)F)cc(C(F)(F)F)c4)c3)cc2-c2ccncc2)c1; 0.617
O=C(Nc1cccc(-n2cc(-c3ccncc3)c(-c3cc(O)cc(Cl)c3)n2)c1)Nc1ccc(Cl)c(C(F)(F)F)c1; 3.09
COc1cc(Cl)cc(-c2nn(-c3cccc(NC(=O)Nc4ccc(Cl)c(Cl)c4)c3)cc2-c2ccncc2)c1; 3.24

Would you kindly look at the next entry?
Noted for COc1cc(Cl)cc(-c2nn(-c3cccc(NC(=O)Nc4cccc(C(F)(F)F)c4)c3)cc2-c2ccncc2)c1 : its GI50 reads 2.57

* * *

Test system: SF-539
Test: Growth inhibition of human SF539 cells assessed as cell growth at 0.01 uM incubated for 48 hrs by sulforhodamine B assay relative to control
Format: functional
Details: SF-539, 48 h, read-out: Activity
Parameter Measured: growth at 0.01 µM (%)
Kindly answer with a numeric value in %, unit omitted.

Noted for COc1cc(Cl)cc(-c2nn(-c3cccc(NC(=O)Nc4cc(C(F)(F)F)cc(C(F)(F)F)c4)c3)cc2-c2ccncc2)c1 : its growth at 0.01 µM reads 100

* * *

Test system: HOP-62
Assay: Growth inhibition of human HOP62 cells assessed as cell growth at 0.1 uM incubated for 48 hrs by sulforhodamine B assay relative to control
Type: functional
Conditions: HOP-62, 48 h, read-out: Activity
Known growth at 0.1 µM of a selection of compounds
Kindly answer with a numeric value in %, unit omitted.

Noted for O=C(Nc1cccc(-n2cc(-c3ccncc3)c(-c3cc(O)cc(Cl)c3)n2)c1)Nc1ccc(Cl)c(Cl)c1 : its growth at 0.1 µM reads 97

Noted for COc1cc(Cl)cc(-c2nn(-c3cccc(NC(=O)c4cccc(C(F)(F)F)c4)c3)cc2-c2ccncc2)c1 : its growth at 0.1 µM reads 101

Noted for O=C(Nc1cccc(-n2cc(-c3ccncc3)c(-c3cc(O)cc(Cl)c3)n2)c1)Nc1ccc(Cl)c(C(F)(F)F)c1 : its growth at 0.1 µM reads 97

Noted for COc1cc(Cl)cc(-c2nn(-c3cccc(NC(=O)c4ccc(N5CCOCC5)c(C(F)(F)F)c4)c3)cc2-c2ccncc2)c1 : its growth at 0.1 µM reads 105

* * *

Tested on: U-251
Assay: Growth inhibition of human U251 cells incubated for 48 hrs by sulforhodamine B assay
Assay type: functional, cell-based
Settings: U-251, 48 h, read-out: pLC50 (the source's name) (converted)
Known CC50 of a selection of compounds
Kindly answer with a numeric value in µM, unit omitted.

O=C(Nc1cccc(-n2cc(-c3ccncc3)c(-c3cc(O)cc(Cl)c3)n2)c1)Nc1ccc(Cl)c(Cl)c1; 6.61

Noted for O=C(Nc1cccc(-n2cc(-c3ccncc3)c(-c3cc(O)cc(Cl)c3)n2)c1)c1ccc(N2CCOCC2)c(C(F)(F)F)c1 : its CC50 reads 43.7

Noted for COc1cc(Cl)cc(-c2nn(-c3cccc(NC(=O)Nc4cccc(C(F)(F)F)c4)c3)cc2-c2ccncc2)c1 : its CC50 reads 8.91

Noted for O=C(Nc1cccc(-n2cc(-c3ccncc3)c(-c3cc(O)cc(Cl)c3)n2)c1)Nc1ccc(Cl)c(C(F)(F)F)c1 : its CC50 reads 7.76

* * *

Known growth at 1 µM of a selection of compounds
Tested on: Hs-578T
Assay: Growth inhibition of human Hs578T cells assessed as cell growth at 1 uM incubated for 48 hrs by sulforhodamine B assay relative to control
Assay type: functional
Details: read-out: Activity

COc1cc(Cl)cc(-c2nn(-c3cccc(NC(=O)Nc4ccc(Cl)c(C(F)(F)F)c4)c3)cc2-c2ccncc2)c1; 89%
O=C(Nc1cccc(-n2cc(-c3ccncc3)c(-c3cc(O)cc(Cl)c3)n2)c1)Nc1ccc(Cl)c(C(F)(F)F)c1; 87%
O=C(Nc1cccc(-n2cc(-c3ccncc3)c(-c3cc(O)cc(Cl)c3)n2)c1)c1ccc(N2CCOCC2)c(C(F)(F)F)c1; 59%

Would you kindly look at the next entry?
Noted for COc1cc(Cl)cc(-c2nn(-c3cccc(NC(=O)Nc4cccc(C(F)(F)F)c4)c3)cc2-c2ccncc2)c1 : its growth at 1 µM reads 90%

* * *

Known growth at 1 µM of a selection of compounds
Test system: MCF7
Experiment: Growth inhibition of human MCF7 cells assessed as cell growth at 1 uM incubated for 48 hrs by sulforhodamine B assay relative to control
Format: functional
Conditions: MCF7, 48 h, read-out: Activity

Reference set, count: 3
COc1cc(Cl)cc(-c2nn(-c3cccc(NC(=O)Nc4cccc(C(F)(F)F)c4)c3)cc2-c2ccncc2)c1; 62%
COc1cc(Cl)cc(-c2nn(-c3cccc(NC(=O)c4ccc(N5CCOCC5)c(C(F)(F)F)c4)c3)cc2-c2ccncc2)c1; 90%
O=C(Nc1cccc(-n2cc(-c3ccncc3)c(-c3cc(O)cc(Cl)c3)n2)c1)c1ccc(N2CCOCC2)c(C(F)(F)F)c1; 82%

Would you kindly look at the next entry?
Noted for COc1cc(Cl)cc(-c2nn(-c3cccc(NC(=O)Nc4ccc(Cl)c(Cl)c4)c3)cc2-c2ccncc2)c1 : its growth at 1 µM reads 83%

* * *

System: NCI/ADR-RES
Assay: Growth inhibition of human NCI/ADR-RES cells assessed as cell growth at 100 uM incubated for 48 hrs by sulforhodamine B assay relative to control
Type: functional
Details: read-out: Activity
Parameter Measured: growth at 100 µM (%)
Kindly answer with a numeric value in %, unit omitted.

O=C(Nc1cccc(-n2cc(-c3ccncc3)c(-c3cc(O)cc(Cl)c3)n2)c1)Nc1ccc(Cl)c(Cl)c1; 2
COc1cc(Cl)cc(-c2nn(-c3cccc(NC(=O)Nc4cc(C(F)(F)F)cc(C(F)(F)F)c4)c3)cc2-c2ccncc2)c1; -12
COc1cc(Cl)cc(-c2nn(-c3cccc(NC(=O)Nc4ccc(Cl)c(Cl)c4)c3)cc2-c2ccncc2)c1; -3

Would you kindly look at the next entry?
Noted for COc1cc(Cl)cc(-c2nn(-c3cccc(NC(=O)Nc4cccc(C(F)(F)F)c4)c3)cc2-c2ccncc2)c1 : its growth at 100 µM reads -22

* * *

Tested on: SK-MEL-28
Assay: Growth inhibition of human SK-MEL-28 cells incubated for 48 hrs by sulforhodamine B assay
Assay type: functional, cell-based
Settings: SK-MEL-28, 48 h, read-out: pGI50 (converted)
Assign labels as follows, please: 1 for GI50 below 2000 nM; -1 for GI50 equal to or exceeding 2000 nM.

Exercise: Answer whether the compound COc1cc(Cl)cc(-c2nn(-c3cccc(NC(=O)Nc4cc(C(F)(F)F)cc(C(F)(F)F)c4)c3)cc2-c2ccncc2)c1 has GI50 strictly less than 2000 nM
Key: 1

Exercise: Answer whether the compound O=C(Nc1cccc(-n2cc(-c3ccncc3)c(-c3cc(O)cc(Cl)c3)n2)c1)c1ccc(N2CCOCC2)c(C(F)(F)F)c1 has GI50 strictly less than 2000 nM
Key: 1

Exercise: Answer whether the compound COc1cc(Cl)cc(-c2nn(-c3cccc(NC(=O)Nc4ccc(Cl)c(C(F)(F)F)c4)c3)cc2-c2ccncc2)c1 has GI50 strictly less than 2000 nM
Key: -1

Exercise: Answer whether the compound COc1cc(Cl)cc(-c2nn(-c3cccc(NC(=O)Nc4cccc(C(F)(F)F)c4)c3)cc2-c2ccncc2)c1 has GI50 strictly less than 2000 nM
Key: -1

Exercise: Answer whether the compound O=C(Nc1cccc(-n2cc(-c3ccncc3)c(-c3cc(O)cc(Cl)c3)n2)c1)Nc1ccc(Cl)c(Cl)c1 has GI50 strictly less than 2000 nM
Key: -1

* * *

Tested on: OVCAR-3
Assay: Growth inhibition of human OVCAR3 cells assessed as cell growth at 0.1 uM incubated for 48 hrs by sulforhodamine B assay relative to control
Format: functional
Conditions: OVCAR-3, 48 h, read-out: Activity
Known growth at 0.1 µM of a selection of compounds
Kindly answer with a numeric value in %, unit omitted.

Reference set, count: 3
O=C(Nc1cccc(-n2cc(-c3ccncc3)c(-c3cc(O)cc(Cl)c3)n2)c1)c1ccc(N2CCOCC2)c(C(F)(F)F)c1; 113
COc1cc(Cl)cc(-c2nn(-c3cccc(NC(=O)Nc4ccc(Cl)c(C(F)(F)F)c4)c3)cc2-c2ccncc2)c1; 99
COc1cc(Cl)cc(-c2nn(-c3cccc(NC(=O)c4cccc(C(F)(F)F)c4)c3)cc2-c2ccncc2)c1; 108

Noted for COc1cc(Cl)cc(-c2nn(-c3cccc(NC(=O)Nc4ccc(Cl)c(Cl)c4)c3)cc2-c2ccncc2)c1 : its growth at 0.1 µM reads 101

Noted for O=C(Nc1cccc(-n2cc(-c3ccncc3)c(-c3cc(O)cc(Cl)c3)n2)c1)Nc1ccc(Cl)c(C(F)(F)F)c1 : its growth at 0.1 µM reads 95
